B1: library; numbered along this chain (parent)
chain: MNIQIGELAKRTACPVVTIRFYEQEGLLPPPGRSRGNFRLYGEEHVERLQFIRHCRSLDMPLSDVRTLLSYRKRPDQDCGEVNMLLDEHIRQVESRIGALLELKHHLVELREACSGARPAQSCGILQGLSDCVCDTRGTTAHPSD

# Variants of: B1
# ASSAY SUMMARY: sfGFP reporter fluorescence (15 h) (µM FITC); higher = stronger transcriptional activation
# PROTOCOL CONDITIONS: library round: Round 0; ligand: 30 µM Zn
Mark yes for reported sfGFP reporter fluorescence of 0.6 or greater; mark no for anything smaller.

P61F :: no
M60K :: no
E112A :: yes
R53A :: no
P15I :: no
G36W :: no
P61N K104V L107C :: yes
R39S :: no
C55I :: no
C55R :: no
V108E :: yes
P15K :: yes
D135V :: yes
P30D :: no
C55F :: no
M60L P61N L107C :: yes
M60L D64K L107C G128M :: yes
